Molecular target: T1, rat calcitonin receptor (rat, UniProt P32214 25-516)
T1 construct: whole, on cells; Cell membranes of transiently transfected BHK tk'ts 13 cells (Assay VIII); also called rCTR; rCT
T1 sequence (looked up): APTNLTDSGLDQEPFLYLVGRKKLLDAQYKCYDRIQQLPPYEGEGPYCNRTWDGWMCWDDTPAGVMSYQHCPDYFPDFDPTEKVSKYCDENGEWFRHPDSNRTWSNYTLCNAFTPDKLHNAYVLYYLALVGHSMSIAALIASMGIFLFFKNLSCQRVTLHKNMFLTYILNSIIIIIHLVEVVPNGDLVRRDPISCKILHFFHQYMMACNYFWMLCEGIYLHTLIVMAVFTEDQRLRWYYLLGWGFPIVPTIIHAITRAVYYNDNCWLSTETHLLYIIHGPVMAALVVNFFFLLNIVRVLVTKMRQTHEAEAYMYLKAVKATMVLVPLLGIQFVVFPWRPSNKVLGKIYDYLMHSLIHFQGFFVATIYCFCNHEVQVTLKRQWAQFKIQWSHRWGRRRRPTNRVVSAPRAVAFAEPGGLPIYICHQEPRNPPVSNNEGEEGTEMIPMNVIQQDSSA
Experiment: SPA competition vs 125I-calcitonin, membranes with rat CTR (Assay VIII)
Numbered stars: 1 amine (or outer) side, 2 acyl side, 3 side chain; on linkers, the order of the positions; unused ones are H or OH. Bridge positions count the residues as written; N and C are the ends. Side chains are listed from the residue outwards. Ends that are not written are not given here. * marks the point of attachment. C20 diacid = O=C(O)CCCCCCCCCCCCCCCCCCC(=O)*; γGlu = O=C(O)[C@H](CCC(=O)[*:2])N[*:1]; AEEA = NCCOCCOCC(=O)O
Endpoint name: IC50 (nM)
Output spec: scalar in nM, unitless text.

Examples from the recorded data:
| Binder | Quantitative readout |
| --- | --- |
| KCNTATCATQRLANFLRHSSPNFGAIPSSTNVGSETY (C20 diacid-gGlu on alpha-amino of the N-terminal residue; Cys2-Cys7 disulfide; C-terminal amide (as human amylin), Acylated analogue of human amylin; also called compound 23) [N^α1-[(4S)-4-carboxy-4-(19-carboxynonadecanoylamino)butanoyl]-[Arg17,Pro21,Pro27,Glu35]-h-amylin] | 79.9 |
| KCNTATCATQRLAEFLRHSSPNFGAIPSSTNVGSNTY (C20 diacid-gGlu-2xOEG on alpha-amino of the N-terminal residue; Cys2-Cys7 disulfide; C-terminal amide (as human amylin), Acylated analogue of human amylin; also called compound 19) | 95.6 |
| K([AEEA-γGlu-C20 diacid])CNTATCATQRLANFLRHSSPNFGAIPPSTPVGSNTY-NH2 (disulfide 2-7, Acylated analogue of human amylin; also called compound 53) | 10.9 |

Then this binder:
Incoming: Could you share which IC50 value was measured for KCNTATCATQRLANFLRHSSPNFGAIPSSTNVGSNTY (C20 diacid-gGlu-2xOEG on alpha-amino of the N-terminal residue; Cys2-Cys7 disulfide; C-terminal amide (as human amylin), Acylated analogue of human amylin; also called compound 24) ?
Outgoing: 350
